The reported measurements were obtained from patent US20250018049A1.

systemUnderTest: CDK2 (Homo sapiens)
experimentalDetails: CDK2 HTRF assay (cellular endogenous CDK2 level)
Format: cell-based
Parameters: High-Throughput Measurement of Cellular Endogenous CDK2; endogenous in cells; host or cells: OVCAR3
experimentalContext: OVCAR-3; OVCAR3 cells, 24 hours, 0.3 to 10,000 nM; read-out: max degradation of CDK2
measureName: Dmax

Examples from the recorded data:
compound="O=C1CCC(N2Cc3cc(N4CC(N5CCC(Oc6cccc(S(=O)(=O)N7CCC(Nc8ncc9ccc(=O)n(C%10CCCC%10)c9n8)CC7)c6)CC5)C4)ccc3C2=O)C(=O)N1 (stereo not drawn) [Compound 28]" measurename=Dmax reportedmeasurement="35 to 90%"
compound="O=C1CCC(N2Cc3cc(N4CC5(CN(Cc6cccc(S(=O)(=O)N7CCC(Nc8ncc9ccc(=O)n(C%10%11CC(C%10)C%11)c9n8)CC7)c6)C5)C4)ccc3C2=O)C(=O)N1 (stereo not drawn) [Compound 62]" measurename=Dmax reportedmeasurement="35 to 90%"

Consider the additional compound presented here.
Challenge: For the compound O=C1CCC(N2Cc3cc(N4CC5CCC(C4)N5Cc4cccc(S(=O)(=O)N5CCC(Nc6ncc7ccc(=O)n(C8CCCC8)c7n6)CC5)c4)ccc3C2=O)C(=O)N1 (stereo not drawn) [Compound 54] , what Dmax is on record?
Response given: 35 to 90%

====

Below, each entry is listed with its recorded times more potent pRb inhibition in OVCAR3 than in KYSE520.
systemUnderTest: CDK1 (Homo sapiens)
Construct: endogenous in cells; host or cells: KYSE520
Sequence (P06493 whole entry): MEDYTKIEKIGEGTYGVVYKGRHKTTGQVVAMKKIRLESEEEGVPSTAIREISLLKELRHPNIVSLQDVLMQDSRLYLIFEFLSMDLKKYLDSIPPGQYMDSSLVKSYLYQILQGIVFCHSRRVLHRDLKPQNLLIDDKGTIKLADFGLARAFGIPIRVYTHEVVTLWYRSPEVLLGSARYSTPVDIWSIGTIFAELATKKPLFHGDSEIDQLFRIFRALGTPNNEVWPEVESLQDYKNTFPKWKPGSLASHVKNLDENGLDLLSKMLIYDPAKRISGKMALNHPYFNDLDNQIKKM
Sequence (P14635 whole entry partner): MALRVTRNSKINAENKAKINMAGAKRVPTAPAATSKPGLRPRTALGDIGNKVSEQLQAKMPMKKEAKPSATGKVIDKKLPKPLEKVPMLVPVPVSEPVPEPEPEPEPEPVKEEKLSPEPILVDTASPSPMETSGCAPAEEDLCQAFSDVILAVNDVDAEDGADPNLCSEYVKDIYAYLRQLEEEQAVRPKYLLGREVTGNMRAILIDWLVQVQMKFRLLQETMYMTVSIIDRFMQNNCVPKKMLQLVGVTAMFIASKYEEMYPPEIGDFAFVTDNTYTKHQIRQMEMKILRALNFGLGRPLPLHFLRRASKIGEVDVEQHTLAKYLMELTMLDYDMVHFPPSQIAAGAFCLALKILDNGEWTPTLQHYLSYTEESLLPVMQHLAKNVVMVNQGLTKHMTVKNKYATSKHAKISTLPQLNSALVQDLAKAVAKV
experimentalDetails: Phospho-Rb HTRF measurement in KYSE520 cells (inhibition of CDK1)
Format: cell-based
experimentalContext: CDK2-dependent OVCAR3 vs CDK2-independent but CDK1-dependent KYSE520 cell line
Protocol: Phosphorylation of RB protein at S780 and S807/811 were measured using HTRF phospho-RB cellular kits (Cat #64RBS780PEG and 64RBS807PEG) from Cisbio. On Day 1, OVCAR3 or KYSE520 cells were seeded into 96-well tissue-culture treated plates at 20,000 cells/well in 200 μL and incubated overnight at 37° C. in CO2 atmosphere. […] Detection plates were incubated for 4 h at room temperature and read on ClarioStar (BMG Labtech) in TR-FRET mode (665 nM and 620 nM). […]

Examples from the recorded data:
compound="Cn1c(=O)n(C2CCC(=O)NC2=O)c2cccc(CNCCOc3cccc(S(=O)(=O)N4CCC(Nc5ncc6ccc(=O)n(C7CCCC7)c6n5)CC4)c3)c21 (stereo not shown)" reportedmeasurement="~20.5 times"
compound="O=C1CCC(N2C(=O)c3cccc(NCCOCCOCCOCCNS(=O)(=O)N4CCC(Nc5ncc6ccc(=O)n(C7CCCC7)c6n5)CC4)c3C2=O)C(=O)N1 (stereo not shown)" reportedmeasurement="~11 times"
compound="O=C1CCC(N2Cc3cc(N4CC(N5CCC(Oc6cccc(S(=O)(=O)N7CCC(Nc8ncc9ccc(=O)n(C%10CCCC%10)c9n8)CC7)c6)CC5)C4)ccc3C2=O)C(=O)N1 (stereo not shown)" reportedmeasurement="~21 times"

Challenge: For the compound O=C1CCC(N2Cc3cc(N4CCC(CN5CCC(c6cccc(S(=O)(=O)N7CCC(Nc8ncc9ccc(=O)n(C%10CCCC%10)c9n8)CC7)c6)CC5)CC4)ccc3C2=O)C(=O)N1 (stereo not shown) , what times more potent pRb inhibition in OVCAR3 than in KYSE520 is on record?
Response given: ~10.5 times

====

systemUnderTest: CDK2 (Homo sapiens, UniProt P24941)
experimentalDetails: Phospho-Rb HTRF measurement in OVCAR3 cells (inhibition of CDK2)
Assay type: cell-based
Design: High-Throughput Measurement of Cellular Endogenous CDK2; endogenous in cells; host or cells: OVCAR3
experimentalContext: pRB(S807/811) assay, 24 h compound treatment
IC50 less than 100 nM is condition met; IC50 greater than or equal to 100 nM is condition not met.

For orientation, consider the following solved cases.
compound="O=C1CCC(N2Cc3c(OCCN4CCC(Oc5cccc(S(=O)(=O)N6CCC(Nc7ncc8ccc(=O)n(C9CCCC9)c8n7)CC6)c5)CC4)cccc3C2=O)C(=O)N1 (centres unmarked)" classlabel="condition not met"
compound="O=C1CCC(N2Cc3cc(N4CC5(CCN(Cc6cccc(S(=O)(=O)N7CCC(Nc8ncc9ccc(=O)n(C%10CCCC%10)c9n8)CC7)c6)CC5)C4)ccc3C2=O)C(=O)N1 (centres unmarked)" classlabel="condition not met"
compound="Cn1c(=O)n(C2CCC(=O)NC2=O)c2cccc(C3CCN(C4CCN(S(=O)(=O)N5CCC(Nc6ncc7ccc(=O)n(C8CCCC8)c7n6)CC5)CC4)CC3)c21 (centres unmarked)" classlabel="condition not met"

Challenge: Confirm or reject: IC50 of CO[C@H]1CN(S(=O)(=O)c2cccc(CN3CCN(c4cc5c(cc4F)C(=O)N(C4CCC(=O)NC4=O)C5=O)CC3)c2)CC[C@@H]1Nc1ncc2ccc(=O)n(C3CCCC3)c2n1 (some centres unmarked) lies strictly below 100 nM
Response given: condition not met

Challenge: Confirm or reject: IC50 of O=C1CCC(N2Cc3cc(N4CCN(Cc5cccc(S(=O)(=O)N6CCC(Nc7ncc8ccc(=O)n(C9CCCC9)c8n7)CC6)c5)CC4)c(F)cc3C2=O)C(=O)N1 (centres unmarked) lies strictly below 100 nM
Response given: condition met

Challenge: Confirm or reject: IC50 of O=C1CCC(N2Cc3cc(N4C5CCC4CN(Cc4cccc(S(=O)(=O)N6CCC(Nc7ncc8ccc(=O)n(C9CCCC9)c8n7)CC6)c4)C5)ccc3C2=O)C(=O)N1 (centres unmarked) lies strictly below 100 nM
Response given: condition not met

Challenge: Confirm or reject: IC50 of O=C1CCC(N2C(=O)c3cccc(NCCOCCOCCOCCNS(=O)(=O)N4CCC(Nc5ncc6ccc(=O)n(C7CCCC7)c6n5)CC4)c3C2=O)C(=O)N1 (centres unmarked) lies strictly below 100 nM
Response given: condition not met

Challenge: Confirm or reject: IC50 of CN(C1CCC(Nc2cccc3c2C(=O)N(C2CCC(=O)NC2=O)C3=O)CC1)S(=O)(=O)N1CCC(Nc2ncc3ccc(=O)n(C4CCCC4)c3n2)CC1 (centres unmarked) lies strictly below 100 nM
Response given: condition not met

Challenge: Confirm or reject: IC50 of O=C1CCC(N2C(=O)c3cc(F)c(N4CCN(Cc5cccc(S(=O)(=O)N6CC[C@H](Nc7ncc8ccc(=O)n(C9CCCC9)c8n7)[C@H](F)C6)c5)CC4)cc3C2=O)C(=O)N1 (some centres unmarked) lies strictly below 100 nM
Response given: condition not met

Challenge: Confirm or reject: IC50 of O=C1CCC(N2Cc3cc(CN4CCC(Oc5cccc(S(=O)(=O)N6CCC(Nc7ncc8ccc(=O)n(C9CCCC9)c8n7)CC6)c5)CC4)ccc3C2=O)C(=O)N1 (centres unmarked) lies strictly below 100 nM
Response given: condition not met

Challenge: Confirm or reject: IC50 of O=C1CCC(N2Cc3cc(N4CCN(Cc5cccc(S(=O)(=O)N6CCC(Nc7ncc8ccc(=O)n(C9CCCC9)c8n7)CC6)c5)CC4)ccc3C2=O)C(=O)N1 (centres unmarked) lies strictly below 100 nM
Response given: condition met

Challenge: Confirm or reject: IC50 of O=C1CCC(N2Cc3cc(N4CC5CCC(C4)N5Cc4cccc(S(=O)(=O)N5CCC(Nc6ncc7ccc(=O)n(C8CCCC8)c7n6)CC5)c4)ccc3C2=O)C(=O)N1 (centres unmarked) lies strictly below 100 nM
Response given: condition met

Challenge: Confirm or reject: IC50 of O=C1CCC(N2Cc3cc(N4CC5(CN(Cc6cccc(S(=O)(=O)N7CCC(Nc8ncc9ccc(=O)n(C%10CC%11CC%11C%10)c9n8)CC7)c6)C5)C4)ccc3C2=O)C(=O)N1 (centres unmarked) lies strictly below 100 nM
Response given: condition met

Challenge: Confirm or reject: IC50 of O=C1CCC(N2Cc3cc(N4CCC5(CC4)CN(Cc4cccc(S(=O)(=O)N6CCC(Nc7ncc8ccc(=O)n(C9CCCC9)c8n7)CC6)c4)C5)ccc3C2=O)C(=O)N1 (centres unmarked) lies strictly below 100 nM
Response given: condition met

Challenge: Confirm or reject: IC50 of Cn1c(=O)n(C2CCC(=O)NC2=O)c2cccc(C3CCN(C4CCN(c5cccc(S(=O)(=O)N6CCC(Nc7ncc8ccc(=O)n(C9CCCC9)c8n7)CC6)c5)CC4)CC3)c21 (centres unmarked) lies strictly below 100 nM
Response given: condition not met

Challenge: Confirm or reject: IC50 of CN(CCN(C)S(=O)(=O)N1CCC(Nc2ncc3ccc(=O)n(C4CCCC4)c3n2)CC1)Cc1ccc(N(C)c2cccc3c2C(=O)N(C2CCC(=O)NC2=O)C3=O)cc1 (centres unmarked) lies strictly below 100 nM
Response given: condition not met

Challenge: Confirm or reject: IC50 of O=C1CCC(N2Cc3cc(CN4CC(Oc5cccc(S(=O)(=O)N6CCC(Nc7ncc8ccc(=O)n(C9CCCC9)c8n7)CC6)c5)C4)ccc3C2=O)C(=O)N1 (centres unmarked) lies strictly below 100 nM
Response given: condition met

Challenge: Confirm or reject: IC50 of O=C1CCC(N2Cc3cc(CNCCOc4cccc(S(=O)(=O)N5CCC(Nc6ncc7ccc(=O)n(C8CCCC8)c7n6)CC5)c4)ccc3C2=O)C(=O)N1 (centres unmarked) lies strictly below 100 nM
Response given: condition met

Challenge: Confirm or reject: IC50 of CN(CCCOCCCc1cccc2c1C(=O)N(C1CCC(=O)NC1=O)C2=O)S(=O)(=O)N1CCC(Nc2ncc3ccc(=O)n(C4CCCC4)c3n2)CC1 (centres unmarked) lies strictly below 100 nM
Response given: condition not met
